Source listed as patent US10703756B2.

# tested.system: UniProt:P52333
# Sequence (P52333 1-1124): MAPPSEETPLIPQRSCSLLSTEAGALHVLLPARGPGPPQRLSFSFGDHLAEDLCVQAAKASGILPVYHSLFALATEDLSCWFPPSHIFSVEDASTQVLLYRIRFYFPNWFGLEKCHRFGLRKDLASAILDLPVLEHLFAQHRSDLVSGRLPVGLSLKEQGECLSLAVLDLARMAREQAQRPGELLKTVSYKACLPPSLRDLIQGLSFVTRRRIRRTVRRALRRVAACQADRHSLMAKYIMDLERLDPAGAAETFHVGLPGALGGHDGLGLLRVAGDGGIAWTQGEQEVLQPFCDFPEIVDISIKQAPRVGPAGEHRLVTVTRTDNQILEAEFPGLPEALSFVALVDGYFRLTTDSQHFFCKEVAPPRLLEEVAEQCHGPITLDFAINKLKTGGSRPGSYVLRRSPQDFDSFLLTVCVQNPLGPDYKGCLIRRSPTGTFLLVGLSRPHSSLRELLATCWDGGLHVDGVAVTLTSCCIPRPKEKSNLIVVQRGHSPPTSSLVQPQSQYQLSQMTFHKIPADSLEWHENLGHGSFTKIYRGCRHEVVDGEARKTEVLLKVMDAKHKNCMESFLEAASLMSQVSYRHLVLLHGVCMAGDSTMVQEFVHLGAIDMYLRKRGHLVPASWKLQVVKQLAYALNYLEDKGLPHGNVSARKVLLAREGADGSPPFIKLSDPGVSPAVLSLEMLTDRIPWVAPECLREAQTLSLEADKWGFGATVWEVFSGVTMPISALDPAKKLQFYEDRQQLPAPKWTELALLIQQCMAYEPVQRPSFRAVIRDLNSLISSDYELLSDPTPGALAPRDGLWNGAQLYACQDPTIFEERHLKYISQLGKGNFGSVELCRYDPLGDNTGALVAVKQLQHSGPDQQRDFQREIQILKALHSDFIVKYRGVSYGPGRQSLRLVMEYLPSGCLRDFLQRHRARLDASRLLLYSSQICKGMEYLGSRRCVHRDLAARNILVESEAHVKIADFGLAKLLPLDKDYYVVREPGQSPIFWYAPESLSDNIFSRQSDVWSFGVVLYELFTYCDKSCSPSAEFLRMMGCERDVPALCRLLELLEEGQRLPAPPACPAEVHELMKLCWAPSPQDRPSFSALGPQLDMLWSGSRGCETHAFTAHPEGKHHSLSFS
# run.description: JAK Caliper Enzyme Assay at 4 μM ATP
# Assay type: biochemical
endpoint: IC50

>>> observed_value("C=CC(=O)N1CCN(c2cnc3[nH]cc(C(=O)NCC(F)(F)F)c3n2)CC1(C)C [Example 286]")
"12.4 nM"
>>> observed_value("C=CC(=O)N1CC[C@H](Oc2cnc3[nH]cc(C(=O)N[C@@H](C)COC)c3n2)C[C@H]1C (single isomer, unassigned) [Example 72]")
"1.13 nM"
>>> observed_value("C=CC(=O)N1CC[C@H](Nc2cnc3[nH]cc(C(=O)N[C@@H](C)COC)c3n2)C[C@@H]1C (relative stereo) [Example 55]")
"2.21 nM"
>>> observed_value("C=CC(=O)N1CCC(Oc2cnc3[nH]cc(C(=O)NCC(C)(F)F)c3n2)CC1 [Example 215]")
"0.782 nM"
>>> observed_value("C=CC(=O)N1C[C@H](Nc2cnc3[nH]cc(C(=O)NCCOC)c3n2)C[C@H]1COC [Example 258]")
"6.23 nM"
>>> observed_value("C=CC(=O)N1CCC(Nc2cnc3[nH]cc(C(=O)N[C@@H]4C[C@H]4C(F)(F)F)c3n2)CC1C (mixture of isomers) [Example 337]")
"14.4 nM"
>>> observed_value("C=CC(=O)N1CCN(c2cnc3[nH]cc(C(=O)NCC4(O)CCC(F)(F)CC4)c3n2)CC1(C)C [Example 291]")
"15.5 nM"
